# TESTED SYSTEM: human F508del-CFTR (Homo sapiens, UniProt P13569, DEL508-508)
# Sequence (P13569 with tags, fused parts or gaps DEL508-508): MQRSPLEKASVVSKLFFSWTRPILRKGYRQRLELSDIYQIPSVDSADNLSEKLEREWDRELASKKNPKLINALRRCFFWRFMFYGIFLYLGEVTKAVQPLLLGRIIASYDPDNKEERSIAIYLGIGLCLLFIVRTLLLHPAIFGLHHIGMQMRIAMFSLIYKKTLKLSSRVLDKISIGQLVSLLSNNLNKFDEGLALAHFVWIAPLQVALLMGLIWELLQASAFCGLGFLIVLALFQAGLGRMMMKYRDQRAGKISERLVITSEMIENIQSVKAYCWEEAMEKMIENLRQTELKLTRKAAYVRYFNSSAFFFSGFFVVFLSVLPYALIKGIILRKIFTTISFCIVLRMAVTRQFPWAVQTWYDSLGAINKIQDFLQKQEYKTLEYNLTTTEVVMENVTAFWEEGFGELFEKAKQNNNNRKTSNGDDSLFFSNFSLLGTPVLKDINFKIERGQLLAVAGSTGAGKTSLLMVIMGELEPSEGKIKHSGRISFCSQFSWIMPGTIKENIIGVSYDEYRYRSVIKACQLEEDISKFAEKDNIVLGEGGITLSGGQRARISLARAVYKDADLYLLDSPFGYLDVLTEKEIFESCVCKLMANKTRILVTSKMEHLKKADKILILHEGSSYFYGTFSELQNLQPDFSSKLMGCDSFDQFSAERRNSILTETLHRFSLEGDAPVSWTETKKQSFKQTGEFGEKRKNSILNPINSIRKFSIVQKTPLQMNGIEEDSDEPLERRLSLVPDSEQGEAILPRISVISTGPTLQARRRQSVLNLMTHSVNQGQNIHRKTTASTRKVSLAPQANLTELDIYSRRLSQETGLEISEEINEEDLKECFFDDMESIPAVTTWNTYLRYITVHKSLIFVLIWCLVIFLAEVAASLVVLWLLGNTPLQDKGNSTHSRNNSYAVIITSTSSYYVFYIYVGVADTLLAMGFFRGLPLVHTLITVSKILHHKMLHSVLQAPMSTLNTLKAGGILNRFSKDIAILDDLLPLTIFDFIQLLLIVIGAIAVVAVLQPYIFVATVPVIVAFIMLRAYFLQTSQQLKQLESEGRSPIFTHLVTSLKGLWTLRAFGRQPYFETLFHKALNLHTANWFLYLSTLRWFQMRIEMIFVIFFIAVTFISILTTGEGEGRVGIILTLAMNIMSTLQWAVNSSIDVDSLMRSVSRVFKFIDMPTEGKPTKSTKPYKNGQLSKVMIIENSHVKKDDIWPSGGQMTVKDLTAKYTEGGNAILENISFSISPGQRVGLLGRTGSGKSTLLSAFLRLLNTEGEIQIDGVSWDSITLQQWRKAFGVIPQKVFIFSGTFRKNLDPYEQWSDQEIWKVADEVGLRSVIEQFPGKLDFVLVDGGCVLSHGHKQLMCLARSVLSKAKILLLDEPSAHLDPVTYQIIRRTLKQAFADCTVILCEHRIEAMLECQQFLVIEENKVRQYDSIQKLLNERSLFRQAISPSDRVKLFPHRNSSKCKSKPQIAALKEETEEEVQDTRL
# EXPERIMENT DESCRIPTION: F508del-CFTR cell surface expression (corrector activity), DiscoveRx ß-galactosidase complementation chemiluminescence assay in recombinant U2OS cell line
# APPLIED CONDITIONS: U2OS, in relation to the Emax of the corrector lumacaftor (=100%); U2OS cells, 16h compound incubation; arithmetic mean
ENDPOINT LABEL: Emax (%)

Recorded Emax, per entry:
// query Emax value for entry COc1cc(CCNC(=O)[C@@H]2CC(=O)N(C)[C@@H](CC(C)C)C(=O)N(C)[C@H](CC(F)(F)F)C(=O)N[C@H](Cc3ccccc3)COc3ccc4cnc(C)cc4c3C(=O)N2)on1 [Example 957]
451

// query Emax value for entry Cc1cc2c(c3cccnc13)C(=O)N[C@H](C(=O)NCCn1nnc(C3CC3)n1)CC(=O)N(C)[C@@H](CC(C)C)C(=O)N(C)[C@H](Cc1nc(C(F)(F)F)no1)C(=O)N[C@H](Cc1ccccc1)CO2 [Example 923]
500

// query Emax value for entry COc1noc(CCNC(=O)[C@@H]2CC(=O)N(C)[C@@H](CC(C)C)C(=O)N(C)C3(CC3)C(=O)N[C@H](Cc3ccccc3)COc3ccc4ncc(F)cc4c3C(=O)N2)c1F [Example 963]
447

// query Emax value for entry COc1noc(CCNC(=O)[C@@H]2CC(=O)N(C)[C@@H](CC(C)C)C(=O)N(C)[C@H](CC(F)F)C(=O)N[C@H](Cc3ccccc3)COc3ccc4ncc(F)cc4c3C(=O)N2)c1F [Example 967]
472

// query Emax value for entry C#Cc1nn(CCNC(=O)[C@@H]2CC(=O)N(C)[C@@H](CC(C)C)C(=O)N3CCCC[C@@H]3C(=O)N[C@H](Cc3ccccc3)COc3cc(C)nc(OC)c3C(=O)N2)nc1C [Example 834]
300

[a] CC(C)C[C@H]1C(=O)N(C)C2(CC2)C(=O)N[C@H](Cc2ccccc2)COc2ccc3ncc(F)cc3c2C(=O)N[C@H](C(=O)NCCn2nnc(C3CC3)n2)CC(=O)N1C [Example 817]
[b] Cc1cc(CCNC(=O)[C@@H]2CC(=O)N(C)[C@@H](CC(C)C)C(=O)N3CCN(c4ccc(F)cn4)C[C@@H]3C(=O)N[C@H](Cc3ccccc3)COc3cnc4ccccc4c3C(=O)N2)on1 [Example 852]
a or b : whose Emax is greater? Refer to your chosen entry by its label in the reply.
a
(a: 375%, b: 249%)

====

# TESTED SYSTEM: human F508del-CFTR (Homo sapiens, UniProt P13569, DEL508-508)
# EXPERIMENT DESCRIPTION: F508del-CFTR cell surface expression (corrector activity), DiscoveRx ß-galactosidase complementation chemiluminescence assay in recombinant U2OS cell line
# APPLIED CONDITIONS: U2OS, in relation to the Emax of the corrector lumacaftor (=100%); U2OS cells, 16h compound incubation; arithmetic mean
ENDPOINT LABEL: Emax (%)

Query Emax on human F508del-CFTR (Homo sapiens, UniProt P13569, DEL508-508) for COc1cc2c(c(OC)n1)C(=O)N[C@H](C(=O)NCCc1cc(C)no1)CC(=O)N(C)[C@@H](CC(C)C)C(=O)N1CCCC[C@@H]1C(=O)N[C@H](Cc1ccccc1)CO2
305

Query Emax on human F508del-CFTR (Homo sapiens, UniProt P13569, DEL508-508) for COc1cc(CCNC(=O)[C@@H]2CC(=O)N(C)[C@@H](CC(C)C)C(=O)N3CCCC[C@@H]3C(=O)N[C@H](Cc3ccccc3)COc3cc(C)c4ncccc4c3C(=O)N2)on1
363

Query Emax on human F508del-CFTR (Homo sapiens, UniProt P13569, DEL508-508) for Cc1cc2c3c(ccc2cn1)OC[C@@H](Cc1ccccc1)NC(=O)[C@H]1CCCCN1C(=O)[C@H](CC(C)C)N(C)C(=O)C[C@@H](C(=O)NCCn1nnc(C2CC2)n1)NC3=O
366

====

# TESTED SYSTEM: human F508del-CFTR (Homo sapiens, UniProt P13569, DEL508-508)
# EXPERIMENT DESCRIPTION: F508del-CFTR cell surface expression (corrector activity), DiscoveRx ß-galactosidase complementation chemiluminescence assay in recombinant U2OS cell line
# APPLIED CONDITIONS: U2OS, in relation to the Emax of the corrector lumacaftor (=100%); U2OS cell line, 16h compound incubation; arithmetic mean values
ENDPOINT LABEL: Emax (%)

// query Emax value for entry COc1cccc(CCNC(=O)[C@@H]2CC(=O)N(C)[C@@H](CC(C)C)C(=O)N(C)CC(=O)N[C@H](Cc3ccccc3)COc3cccc(OC(F)(F)F)c3C(=O)N2)c1 [Example 317]
89

// query Emax value for entry COc1cccc(CCNC(=O)[C@@H]2CC(=O)N(C)[C@@H](CC(C)C)C(=O)N(C)CC(=O)N[C@H](Cc3ccccc3)COc3ccc(OC)cc3C(=O)N2)c1 [Example 231]
173

// query Emax value for entry CC(C)C[C@H]1C(=O)N2CCCC[C@@H]2C(=O)N[C@H](Cc2ccccc2)COc2cnc3ccccc3c2C(=O)N[C@H](C(=O)NCCc2nc(C3CC3)no2)CC(=O)N1C [Example 127]
311

// query Emax value for entry COc1cccc(CCNC(=O)[C@@H]2CC(=O)N(C)[C@@H](CC3CCCC3)C(=O)N(C[C@H]3CCCCO3)CC(=O)N[C@H](Cc3ccccc3)COc3cccc(OC)c3C(=O)N2)c1 [Example 313]
119

// query Emax value for entry CC(C)C[C@H]1C(=O)N2CCCC[C@@H]2C(=O)N[C@H](Cc2ccccc2)COc2cnc3ccccc3c2C(=O)N[C@H](C(=O)NCCc2ccc(F)cc2F)CC(=O)N1C [Example 94]
201

[P] COc1cccc2c1C(=O)N[C@H](C(=O)NCCC1CCC(C)(C)CO1)CC(=O)N(C)[C@@H](CC(C)C)C(=O)N(CCC1CCCCC1)CC(=O)N[C@H](Cc1ccccc1)CO2 (mixture of isomers) [Example 157]
[Q] CC(C)C[C@H]1C(=O)N2CCOC[C@@H]2C(=O)N[C@H](Cc2ccccc2)COc2cnc3ccccc3c2C(=O)N[C@H](C(=O)NCCc2ccc(-n3nccn3)cc2)CC(=O)N1C [Example 55]
Dear colleague, could you let me know whether P or Q has the lower recorded Emax? Thanks. Refer to your chosen entry by its label in the reply.
P

====

# TESTED SYSTEM: human F508del-CFTR (Homo sapiens, UniProt P13569, DEL508-508)
# EXPERIMENT DESCRIPTION: F508del-CFTR cell surface expression (corrector activity), DiscoveRx ß-galactosidase complementation chemiluminescence assay in recombinant U2OS cell line
# APPLIED CONDITIONS: EC50, F508del-CFTR cell surface expression, U2OS cell line, 16h compound incubation; geomean values
pEC50: −log10 of the molar value.
ENDPOINT LABEL: pEC50

// query pEC50 value for entry Cc1cc(CCNC(=O)[C@@H]2CC(=O)N(C)[C@@H](CC(C)C)C(=O)N(C)C3(CC3)C(=O)N[C@H](Cc3ccccc3)COc3cnc4ccccc4c3C(=O)N2)no1
6.11

// query pEC50 value for entry COc1ccc2c(c1)C(=O)N[C@H](C(=O)NCCc1ccc3c(c1)OCO3)CC(=O)N(C)[C@@H](CC(C)C)C(=O)N(C)CC(=O)N[C@H](Cc1ccccc1)CO2
6.34

// query pEC50 value for entry COc1cccc(CCNC(=O)[C@@H]2CC(=O)N(C)[C@@H](CC3CCCC3)C(=O)N(C[C@@H]3CCCCO3)CC(=O)N[C@H](Cc3ccccc3)COc3ccc4ccccc4c3C(=O)N2)c1 (mixture of isomers) [Example 293]
6.47

[1] CC(C)C[C@H]1C(=O)N2CCCC[C@@H]2C(=O)N[C@H](Cc2ccccc2)COc2cnc3ccccc3c2C(=O)N[C@H](C(=O)NCCc2cc(C(C)(C)C)on2)CC(=O)N1C [Example 89]
[2] Cc1cn(C)nc1CCNC(=O)[C@@H]1CC(=O)N(C)[C@@H](CC(C)C)C(=O)N2CCCC[C@@H]2C(=O)N[C@H](Cc2ccccc2)COc2cnc3ccccc3c2C(=O)N1
1 or 2 : whose pEC50 is greater? Refer to your chosen entry by its label in the reply.
1
(1: 6.88, 2: 6.39)

====

# TESTED SYSTEM: human F508del-CFTR (Homo sapiens, UniProt P13569, DEL508-508)
# EXPERIMENT DESCRIPTION: F508del-CFTR cell surface expression (corrector activity), DiscoveRx ß-galactosidase complementation chemiluminescence assay in recombinant U2OS cell line;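 note: U2OS cells co-expressing ProLink-tagged F508del-CFTR and a membrane-anchored enzyme acceptor, where more surface CFTR restores β-galactosidase activity measured by chemiluminescence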
# APPLIED CONDITIONS: EC50, F508del-CFTR cell surface expression, U2OS cells, 16h compound incubation; geomean values
pEC50: −log10 of the molar value.
ENDPOINT LABEL: pEC50

Recorded pEC50, per entry:
// query pEC50 value for entry CC(C)C[C@H]1C(=O)N2CCCC[C@@H]2C(=O)N[C@H](Cc2ccccc2)COc2cnc3c(F)cccc3c2C(=O)N[C@H](C(=O)NCCc2cc(C3CC3)no2)CC(=O)N1C
6.72

// query pEC50 value for entry CC(C)C[C@H]1C(=O)N(C)[C@H](CC2CCCC2)C(=O)N[C@H](Cc2ccccc2)COc2cnc3ccc(F)cc3c2C(=O)N[C@H](C(=O)NCCc2noc(C3CC3)n2)CC(=O)N1C
7.40

// query pEC50 value for entry CC(C)C[C@H]1C(=O)N2CCCC[C@@H]2C(=O)N[C@H](Cc2ccccc2)COc2cccc(F)c2C(=O)N[C@H](C(=O)NCCc2ccc(-n3nccn3)cc2)CC(=O)N1C
6.43

[P] COCCN1C(=O)[C@H](CC(C)C)N(C)C(=O)C[C@@H](C(=O)NCCc2cccc(OC)c2)NC(=O)c2c(ccc3ccccc23)OC[C@@H](Cc2ccccc2)NC(=O)C12CC2
[Q] COc1noc(CCNC(=O)[C@@H]2CC(=O)N(C)[C@@H](CC(C)C)C(=O)N3CCCC[C@@H]3C(=O)N[C@H](Cc3ccccc3)COc3cc(C)nc(OC)c3C(=O)N2)c1F
[R] CC(C)C[C@H]1C(=O)N(C)[C@H](CC2CCCCC2)C(=O)N[C@H](Cc2ccccc2)COc2cnc3ccc(F)cc3c2C(=O)N[C@H](C(=O)NCCc2nc(C3CC3)no2)CC(=O)N1C
// ascending sort on recorded pEC50 # answer = labels listed in requested order
P, Q, R
(P: 6.49, Q: 6.81, R: 7.85)
